Value source: PubChem BioAssay (NCI)

- System: IGROV1 ovarian
- protocol.text: NCI-60 one-dose screen, 48 h (100 = growth as untreated, 0 = no growth, -100 = all killed)
- experimental.conditions: 10 µM
The panel holds about 83,000 compounds, 20% with a hit somewhere; the sample as a whole holds those more often.
// growth lookup, one value per entry
# output: bare number, implied unit %

Some solved cases for reference:
- compound: "Oc1ccc(/C=N\\Nc2ccccn2)c(O)c1"
  system: "IGROV1 ovarian"
  property.measured: "growth"
  unit: "%"
  reported.measurement: 22.7
- compound: "Cc1nnc2c3nnc(-c4ccc(Cl)cc4)n3c3ccccc3n12"
  system: "IGROV1 ovarian"
  property.measured: "growth"
  unit: "%"
  reported.measurement: 91.8
- compound: "C/C(=N\\NC(=O)c1sc(=S)n(C)c1N)c1cc2ccccc2o1"
  system: "IGROV1 ovarian"
  property.measured: "growth"
  unit: "%"
  reported.measurement: 37.5
- compound: "COc1cc(C2=Nc3c/c(=C\\c4c(O)[nH]c5ccc(Cl)cc45)ccc3=N2)cc(OC)c1OC"
  system: "IGROV1 ovarian"
  property.measured: "growth"
  unit: "%"
  reported.measurement: 49
- compound: "CCCCOCCOCCOCc1cc2c(cc1Br)OCO2"
  system: "IGROV1 ovarian"
  property.measured: "growth"
  unit: "%"
  reported.measurement: 89.6

Prompt line: Form field - read-out: growth; system: IGROV1 ovarian; submitted item: C=CCOc1ccc2c(c1)CC[C@@H]1[C@@H]2CC[C@]2(C)C(=O)/C(=N/O)C[C@@H]12
Response line: 0.671

Prompt line: Form field - read-out: growth; system: IGROV1 ovarian; submitted item: COc1cc(NS(C)(=O)=O)ccc1Nc1c2ccc(Cl)cc2nc2c(OC)cccc12
Response line: 19.3

====

- Test system: MDA-MB-231 breast
- protocol.text: NCI-60 one-dose screen, 48 h
- experimental.conditions: 10 µM
Compounds without any hit were thinned out: in the full panel of roughly 83,000, 20% have a hit. Activity calls are given as the source filed them. How the source made its calls: active means growth percent below 10; inactive means the rest.
Classes to choose from: active, inactive

Some entries whose results are on file:
- compound: "O=S(=O)(NC1c2ccccc2Oc2ccccc21)c1cc(Cl)ccc1Cl"
  classification: "inactive"
- compound: "COc1cccc(-c2nnc(COc3ccc(-c4nc5ccc(C)cc5[nH]4)cc3OC)o2)c1"
  classification: "inactive"
- compound: "CCN(Cc1ccccc1)C1CCN(Cc2cc(Br)ccc2O)CC1"
  classification: "inactive"

Prompt line: GET /call?item= Cc1cc(C(C)(C)CC(C)(C)C)ccc1OCCOCC[N+](C)(C)Cc1ccccc1 returns the recorded outcome of this test.
Response line: active

Prompt line: GET /call?item= C[C@@H]1C(=O)N(C[C@H](Cc2ccccc2)NC(=O)OCc2ccccc2)[C@]1(Cc1ccccc1)C(=O)OCc1ccccc1 returns the recorded outcome of this test.
Response line: inactive

Prompt line: GET /call?item= COc1ccc(C2C=C(c3ccc(Cl)c(Cl)c3)N=C3SC(C)=CN32)cc1 (stereo unspecified) returns the recorded outcome of this test.
Response line: inactive

Prompt line: GET /call?item= CC(=O)O[C@H]1CC[C@@]2(C)[C@@H](CC[C@@H]3[C@@H]2CC[C@]2(C)C=C(C=O)C[C@@H]32)C1 returns the recorded outcome of this test.
Response line: inactive

Prompt line: GET /call?item= CN1CCN(c2nc(-c3cccnc3)nc3sc4c(c23)CCCCCC4)CC1 returns the recorded outcome of this test.
Response line: inactive

Prompt line: GET /call?item= CCOC(=O)CSC(=S)SCC(=O)OCC returns the recorded outcome of this test.
Response line: inactive

Prompt line: GET /call?item= CCSc1nc2c([nH]1)c(=O)n(C)c(=S)n2C returns the recorded outcome of this test.
Response line: inactive

Prompt line: GET /call?item= O=C(O)CCCCSCCCCC(=O)O returns the recorded outcome of this test.
Response line: inactive

Prompt line: GET /call?item= O=C(O)CN1C(=O)C=CC1=O returns the recorded outcome of this test.
Response line: inactive

Prompt line: GET /call?item= COc1ccc(-c2nc3sc(-c4ccccc4)c(-c4ccccc4)n3c2/C=C/c2ccc(F)cc2)cc1 returns the recorded outcome of this test.
Response line: inactive

====

- Tested on: SF-295 CNS
- protocol.text: NCI-60 one-dose screen, 48 h (100 = growth as untreated, 0 = no growth, -100 = all killed)
- experimental.conditions: 10 µM
About 83,000 compounds went through this panel and 20% of them were active in at least one assay; those are over-represented in the sample as a whole.
// growth lookup, one value per entry
# output: bare number, implied unit %

- line.notation: "CCc1ccc(-c2nnc(COc3ccc(-c4nc5cc(Cl)c(Cl)cc5[nH]4)cc3OC)o2)cc1"
  system: "SF-295 CNS"
  property.measured: "growth"
  reported.measurement: 88.2
- line.notation: "Cc1nn2c(/C=C3/C(=O)Nc4ccc(Cl)cc43)c(-c3ccccc3)nc2s1"
  system: "SF-295 CNS"
  property.measured: "growth"
  reported.measurement: 70.1
- line.notation: "O=S(=O)(NC1c2ccccc2Oc2ccccc21)c1ccccc1"
  system: "SF-295 CNS"
  property.measured: "growth"
  reported.measurement: 97.8
- line.notation: "C=CCN1C(=O)/C(=C\\c2ccc3c(c2)CCC3)SC1=S"
  system: "SF-295 CNS"
  property.measured: "growth"
  reported.measurement: 95.2
- line.notation: "COc1ccc(-c2oncc2-c2cc(OC)c3c(c2)OCO3)cc1"
  system: "SF-295 CNS"
  property.measured: "growth"
  reported.measurement: 12.3

Prompt line: For the molecule shown here, COc1ccc(Nc2ccnc(N3CCN(c4ccnc5cc(Cl)ccc45)CC3)n2)cc1 , give the reported growth.
Response line: -4.17

Prompt line: For the molecule shown here, Cc1ccc(S(=O)(=O)Oc2ccccc2-c2ccccc2)cc1 , give the reported growth.
Response line: 8.37

Prompt line: For the molecule shown here, O=C(O)c1ccccc1C(=O)c1cccc2c(F)cccc12 , give the reported growth.
Response line: 122

Prompt line: For the molecule shown here, O=[N+]([O-])c1cc2ncccc2c2ncccc12 , give the reported growth.
Response line: 134

Prompt line: For the molecule shown here, CS(=O)(=O)Nc1ccc([N+](=O)[O-])cc1Oc1ccccc1 , give the reported growth.
Response line: 84.2

Prompt line: For the molecule shown here, COc1cc(Cn2c(-c3ccccc3)c(Cl)c3c2-c2oncc2CC3)cc(OC)c1 , give the reported growth.
Response line: 61

====

- Test system: MALME-3M melanoma
- protocol.text: NCI-60 one-dose screen, 48 h (100 = growth as untreated, 0 = no growth, -100 = all killed)
- experimental.conditions: 10 µM
The panel holds about 83,000 compounds, 20% with a hit somewhere; the sample as a whole holds those more often.
Simple rule here: growth less than 60% is rule met, otherwise rule not met.

Prompt line: Is growth of COc1cccc2c1O/C(=C\c1ncc([N+](=O)[O-])n1C)C2=O strictly below 60%?
Response line: rule met

Prompt line: Is growth of CCOC(=O)[C@@H]1[C@H](c2ccccc2)[C@H]([N+](=O)[O-])[C@H](c2cn(-c3ccccc3)nc2C)N1Cc1ccccc1 strictly below 60%?
Response line: rule not met

Prompt line: Is growth of CC(C)C[C@H](NC(=O)CCn1ccc2ccccc2c1=O)B(O)O strictly below 60%?
Response line: rule met

Prompt line: Is growth of CC1(C)CNC(=O)N1 strictly below 60%?
Response line: rule not met

Prompt line: Is growth of O=C(CCl)N1c2ccccc2Sc2ccc3ccccc3c21 strictly below 60%?
Response line: rule met

Prompt line: Is growth of Brc1ccc(-c2cn3ccnc3c(-c3ccc(Br)cc3)n2)cc1 strictly below 60%?
Response line: rule met

Prompt line: Is growth of COc1cc(-c2nc3ccc(C)cc3[nH]2)ccc1OCc1nnc(-c2ccc(CC(C)C)cc2)o1 strictly below 60%?
Response line: rule not met

Prompt line: Is growth of COc1cc(CSc2nc3ccc(C)cc3c(=O)n2-c2ccccc2)cc(OC)c1OC strictly below 60%?
Response line: rule met

Prompt line: Is growth of COc1cc(CSc2nc3ccc(Cl)cc3c(=O)n2-c2ccccc2)cc(OC)c1OC strictly below 60%?
Response line: rule not met

Prompt line: Is growth of O=C(Nc1ccc(OCc2nnc(-c3ccccc3)o2)c(F)c1)Nc1ccc(Cl)c(Cl)c1 strictly below 60%?
Response line: rule met

Prompt line: Is growth of Cc1nc2cc(-n3c(-c4ccc(F)cc4)nc4ccccc4c3=O)ccc2n1Cc1ccccc1 strictly below 60%?
Response line: rule met

Prompt line: Is growth of O=C(O)c1ccc(CNc2ccc(C(=O)CCl)cc2)cc1 strictly below 60%?
Response line: rule not met

Prompt line: Is growth of OC(CNC1CCCC1)Cn1c2ccccc2c2ccccc21 (configuration not stated) strictly below 60%?
Response line: rule met

Prompt line: Is growth of CCCCN(CCCC)c1ccc(C(=NC(C)CCCN(CC)CC)c2ccc(N(C)C)cc2)cc1 (configuration not stated) strictly below 60%?
Response line: rule met

Prompt line: Is growth of COc1cc(OC)cc(-c2ccc(-c3ccc(C(=N)N)cn3)o2)c1 strictly below 60%?
Response line: rule met

Prompt line: Is growth of Cn1c([N+](=O)[O-])cnc1C=C1C(=O)c2ccccc2C1=O strictly below 60%?
Response line: rule met

Prompt line: Is growth of COc1ccc(-c2cc(/C=C3\C(=O)Nc4cc(Cl)ccc43)[nH]n2)cc1OC strictly below 60%?
Response line: rule met

Prompt line: Is growth of O=C(CCCC(=O)N/N=C/c1cc(Cl)ccc1O)N/N=C\c1cc(Cl)ccc1O strictly below 60%?
Response line: rule met

Prompt line: Is growth of O=C(O)CNS(=O)(=O)c1ccc(OCCOc2ccc(S(=O)(=O)NCC(=O)O)cc2)cc1 strictly below 60%?
Response line: rule not met

Prompt line: Is growth of c1ccc(OCCC[P+](c2ccccc2)(c2ccccc2)c2ccccc2)cc1 strictly below 60%?
Response line: rule met
